Reference source: patent EP4471048A1

assay_details: Peptide stability in simulated gastric fluid (SGF)
Assay type: in vitro ADME
run_conditions: pig, simulated gastric fluid (SGF) with porcine pepsin (3.2 g/L), pH 1.2, 10 µM, 37 °C, porcine pepsin, pH 1.2, 1 h; read-out: SGF (% remaining 1 h)
observation_type: remaining at 1 h, 10 µM (%)
Expressed in %, but write only the number.

Exam item: Suppose we examine the compound CC[C@H](C)[C@@H]1NC(=O)[C@@H]2CCCCNC(=O)CC[C@@H](C(=O)N[C@@H](Cc3cnc4ccccc4c3)C(=O)N[C@@H](Cc3cccnc3)C(=O)NC)NC(=O)[C@](C)(CC(C)C)NC(=O)[C@H](Cc3ccc4ccccc4c3)NC(=O)[C@H](Cc3ccc(OCCN)cc3)NC(=O)[C@H](CCC(=O)N2)NC(=O)[C@H](CCC(N)=O)NC(=O)[C@H](Cc2c[nH]c3ccccc23)NC(=O)[C@H](C(C)C)NC1=O [Compound 71] ; what remaining at 1 h, 10 µM value has been reported?
Marked response: 100

Exam item: Check CC[C@H](C)[C@@H]1NC(=O)[C@@H]2CCCCNC(=O)CC[C@@H](C(=O)N[C@@H](CCN)C(=O)N[C@@H](Cc3cccnc3)C(=O)NC)NC(=O)[C@](C)(CC(C)C)NC(=O)[C@H](Cc3ccc4ccccc4c3)NC(=O)[C@H](Cc3ccc(OCCN)cc3)NC(=O)[C@H](CCC(=O)N2)NC(=O)[C@H](CCC(N)=O)NC(=O)[C@H](Cc2c[nH]c3ccccc23)NC(=O)[C@H](C(C)C)NC1=O [Compound 60] too.
Marked response: 120

Continuing:
Exam item: Suppose we examine the compound CC[C@H](C)[C@@H]1NC(=O)[C@@H]2CCCCNC(=O)CC[C@@H](C(=O)NCCc3cccnc3)NC(=O)[C@](C)(C(C)C)NC(=O)[C@H](Cc3ccc4ccccc4c3)NC(=O)[C@H](Cc3ccc(OCCN)cc3)NC(=O)[C@H](CCC(=O)N2)NC(=O)[C@H](CCC(N)=O)NC(=O)[C@H](Cc2c[nH]c3ccccc23)NC(=O)[C@H](C(C)C)NC1=O [Compound 26] ; what remaining at 1 h, 10 µM value has been reported?
Marked response: 95
